All values here come from patent US20110178396A1.

- System: B16F0 melanoma tumour
- experiment-description: Biodistribution in B16 melanoma bearing mice
- Format: in vivo, C57BL/6J mice
- condition-label: B16 melanoma bearing mice, 15 min
result-type: uptake SKIN (% ID/g)

[[record]]
molecule = "CCCCN(C)CCCCNC(=O)c1ccc(F)nc1 [[^18F]MEL4]"
unit_tag = "% ID/g"
reported_value = 2.53

[[record]]
molecule = "CCN(CC)CCNC(=O)c1cccnc1F [[^18F]MEL6]"
unit_tag = "% ID/g"
reported_value = 2.7

[[record]]
molecule = "CCN(CC)CCNC(=O)c1ccnc(F)c1 [[^18F]MEL8]"
unit_tag = "% ID/g"
reported_value = 2.40

[[record]]
molecule = "CCN(CC)CCNC(=O)c1ccc(F)nc1 [[^18F]MEL2]"
unit_tag = "% ID/g"
reported_value = 2.214

